tested on: MS2 coat protein; experiment: apparent KD of MS2 coat protein; designed switch direction (-1 OFF switch, 1 ON switch): -1; higher = weaker reporter binding; conditions: Eterna round: R95; input ligand: microRNA oligo, concentration not stated
readout-type: apparent KD of MS2 coat protein (nM)
Write the value in nM as a bare number.

Observe how each entry below is paired with its result.
polymer-sequence	target-desc	readout-type	value-measured
AAGUACUACAAGCUUCGGGACAUGAGGAUCACCCAUGUUCGUCUUAUUGAUCUAGGUACGCUGACGUACCUAGAUCA [Mat - Sensor v3 - turn-off var 1 - JL Mod - D12] (puzzle: Sensor v3, turn-off variant 1)	MS2 coat protein	apparent KD of MS2 coat protein	59.4
AUUAUUUAAGUCAGGAUAUCGUAUUUAUUUAAAUACGAGAAGGGACAUGAGGAUCACCCAUGUAAUAAAUUUUU [JMFs Solution 3] (puzzle: Brourd's mod of Exclusion 4)	MS2 coat protein	apparent KD of MS2 coat protein	17.2
AAGUACCGUCACGAUAGUGAUGGUACAACAAGUGGUGAAACAUGAGGAUCACCCAUGUCCUCAAUUGCUCGUCUUAU [Sensor 3 - 85] (puzzle: Sensor v3, turn-off variant 2)	MS2 coat protein	apparent KD of MS2 coat protein	231
GGUGCGUAUGUUAGGAUAUGCUGGUCCUUGGAUCGGCAGAAGGUACAUGAGGAUCACCCAUGUGGUGUCGUUCC [salish99_Bmod_ex4_103] (puzzle: Brourd's mod of Exclusion 4)	MS2 coat protein	apparent KD of MS2 coat protein	50.8
GUAGAGUAAGGAUAUUGUGAAUAGGAUAGAAUGGUUAGAAACGAGAAGGUACAUGAGGAUCACCCAUGUAAUGU [Excluse me!!!! 22 - Jieux - Exclusion 4] (puzzle: Exclusion 4)	MS2 coat protein	apparent KD of MS2 coat protein	22.1

What value of measured apparent KD of MS2 coat protein is listed for AUGGUACAUGAGGAUCACCCAUGUUAGGAUAUCGCGUGAGGUAAAACUUACACACACACGAGAAGGGACGACAU (puzzle: Exclusion 1) ?
55.1

Could you tell me which apparent KD of MS2 coat protein is on file for UUAAGCUUUGAGAUCCUUAACAUGAGGAUCACCCAUGUUCGUCUUAUGAUGGUCUGAUCCCUGAGGAUCGGACCGUA [Mat - Sensor v3 - turn-off var 1 - JL Mod - D4] (puzzle: Sensor v3, turn-off variant 1) ?
11.2

Which apparent KD of MS2 coat protein reading was recorded for the sequence UUUGUUGUUGUGAGGAUAUCGUUGUUAUUUUGAAACGAGAAGGCACAUGAGGAUCACCCAUGUUUGUUGAUGGU [JR_BMOE4_Sub060] (puzzle: Brourd's mod of Exclusion 4) ?
41.5

Fill in the blank: the reported apparent KD of MS2 coat protein of GGGAACGUAGGAUAUACAUGAGGAUCACCCAUGUGAGGAAGGAGUAGGAAGCGUGGAAGUAGAAGGACGGAGAG [JR_Exclu3_Sub074] (puzzle: Exclusion 3) is ____.
31.5

What value of apparent KD of MS2 coat protein has been recorded for this entry: ACAAGCGUUUUGCUCGUAAAGUAGGAACGCGAGAGCGGCACAUGAGGAUCACCCAUGUAGAGGCAGUUGGUGGAGAU [JR_SV3TOV2_Sub030] (puzzle: Sensor v3, turn-off variant 2)
24.2

# lookup: apparent KD of MS2 coat protein of AAUUUACAUGAGGAUCACCCAUGUCAGGAUAUGGUUUUAUUUUUUUUUUUUUUUGAUUCCAGAAGGGACAGUUA (puzzle: Exclusion 1)
22.7

Which apparent KD of MS2 coat protein value belongs to GUGGAGUAAGGAUAUACAUGAGGAUCACCCAUGUGAGGGUAUGAGAAGGGAAUGAGAGGUAGAAGGUACGAGGG [JR_Exclu3_Sub070] (puzzle: Exclusion 3) ?
111

* * *

In this section we review reported apparent KD of MS2 coat protein values for a set of sequences.
test system: MS2 coat protein; experiment: apparent KD of MS2 coat protein; designed switch direction (-1 OFF switch, 1 ON switch): 1; higher = weaker reporter binding; conditions: input ligand: FMN 200 uM
Give the number; nM is assumed, so skip it.

Worked set:
polymer-sequence	readout-type	value-measured
GGAGAACAUGAGGAUCACCCAUGUGGAUGGGCGCUAGGAUAUGCGAGAGGGUGAAGAGAAGCAGAAGGAGUGGAUA [JR_SS1_Sub036] (Eterna round: R96, puzzle: Same State 1)	apparent KD of MS2 coat protein	130
GGCAGUCCGACACAGGAUAUGGGUAACGAAACAUGAGGAUCACCCAUGUGGAAACAUCGGGUUGCCUAGAAGGGUGGAAAGAUUG [Xeti] (Eterna round: R96, puzzle: Same State 2)	apparent KD of MS2 coat protein	32.4
UAAUUAAAGCAAGGAUAUCACGUCGAUUAGACGUGAGAAGGUGCUCCUUACAUGAGGAUCACCCAUGUAUAACAUGAAUAAUUA [SSNG1/10-B2] (Eterna round: R96, puzzle: Same State NG 1)	apparent KD of MS2 coat protein	169

For the next question, use this sequence.
Reported apparent KD of MS2 coat protein for MS2 coat protein, given ACGCCCUCAGUAGGAUAUGGGAAAGGAAGUGUACCAGAAGGACUGGUUGAACAUGAGGAUCACCCAUGUUCAACGACAGGGCGA [PowerStrip SSNG 1.25] (Eterna round: R96, puzzle: Same State NG 1) ?
18.9

* * *

Measured apparent KD of MS2 coat protein values are reported for all entries that follow.
test system: MS2 coat protein; assay: apparent KD of MS2 coat protein; higher = weaker reporter binding; settings: Eterna round: R107; input ligand: tryptophan 2.4 mM
Include the unit right after the number.

Examples with answers:
polymer-sequence	value-measured
UCGCUCUGGGUGAGAUCCGGAGAUGUGGAAGGAGCGCUGGAAACAGCAGGUAGGUCGCCAACGGACAUGAGGAUCACCCAUGUAC [Same State - Arginine A (Freestyle 19)]	81.5 nM
UGGGUACAUGAGGAUCACCCAUGUACUGAAGGAGCGAGAAUUAUCUCAGGUAGGUCGCAGACAUGAGGAUCACCCAUGUAGUAGG [Exclusion Arginine A GF 12]	24.2 nM

Moving on to the next sequence.
Field request: apparent KD of MS2 coat protein | item: GUAUCGACAUGAGGAUCACCCAUGUCCGAAGGAGCGUUGGGAACAACAGGUAGGUCGCGGACAUAGAGCAUCCGGAAACGGAUGC [EAA NP+V+V2 #1]
13.9 nM

* * *

system: K4 kissing-loop RNA reporter; assay: apparent KD of K4 kissing-loop reporter; higher = weaker reporter binding; settings: Eterna round: R107; input ligand: theophylline 20 uM;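 note: bound reporter read as fluorescence of individual clusters on recovered sequencing chips by microscopy, with normalized cluster intensities fitted with a binding model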
readout-type: apparent KD of K4 kissing-loop reporter (nM)
Just the number in nM, nothing appended.

Reference set, count: 5
polymer-sequence	readout-units	value-measured
AAAAUAAAUCAGUGAUGUUGGUAUCCGGAUACCAGCGAUAAUCAUCGCCCUUGGCAGCCGCGGACGUACAAAAUAAGUACGUCCU [MatMod 15 - Jieux - Same State - Theophylline A]	nM	240
GCCGUACGCAUGGAUACCAGUCAAGAUCAGUGAUGUUGAUCUUUUAUAGAGCCUACAUUUGACCCUUGGCAGCCAUGCGUACGGC	nM	465
UGGAUAUAGUGAUGUUAUAUAGAGAUGGAUACCAGCAAAGAGAAUUGCCCUUGGCAGCCGAAAGAAGUAUCAUUAGAGAAGAAUG [ExTheophyl.Af]	nM	277
GGCAUCCAUGGACCUAGUGAUGUUAGGUACCGAGGACCGGUACGGCCGCCACUCGGCCAUGGAUGCCGCAAUCGGAAACGAUUGC	nM	460
GAUCUGAACGAAAGUUCGGAUCAGUCCGAUACCAGUAUGGAUUCAUACCCUUGGCAGCGGAAAUCUGCUAUGGAGUGAUGUUCCA [Theophylline A K4 14]	nM	418

Entry under review: UGACUGGAUGGAAGGAGCGCUAAACUCCUAGUGAUGUUAGGGAUACGAGGCAAAGCCUCGAGGCAGGUAGGUCGCCAUCUAGUCU [FiskerMod 24 - Jieux - Same State - Arginine B] . Reported apparent KD of K4 kissing-loop reporter?
147

Fill blank: measured apparent KD of K4 kissing-loop reporter of the sequence AAUAGGGAGUGAUGUUCCCUCACUUAUGAUACCAGUGCCAUCGGACACCCUUGGCAGCAUACGGGCAGUGAUGUUGUUCUUGGAA [Exclusion Theophylline A GF 25] is ____.
155

What does the data say about its apparent KD of K4 kissing-loop reporter? Entry: GAAUGGAGUGAUGUUCCAUUAACGAUCCUACGAGGACCGGUACGGCCGCCACUCGUAUUGCAGUGAUGUUGCAACCAGCCGUACU [Exclusion Tryptophan A GF 9]
111

Would you kindly share the measured apparent KD of K4 kissing-loop reporter for CGAGCGGAGUGAUGUUCCGUGCCAGCAGAUACCAGAUUGAAAGAGAUCCCUUGGCAGCUGCGUCACACCCUUACGUGAUAGGACC [theeternabot_sameState_KL_Theo_A_32] ?
275

Name the reported apparent KD of K4 kissing-loop reporter value associated with the sequence AUUAUAUAGGCGGCCGCCACUAGUGAUGUUAGUGACUAUAUGAAAACAUAUAGAAUAAAAUAAUAUAGGACCGGGCCAUAAUAUU [AstrosExTryB#4]
425

Using the record for GGUUUAUAGGAGGAUACCAGUACGAAUAAAGUACAUUAAUAGUAGAGUGAUGUUCUAAAGUACCCUUGGCAGCUUAGAUUAAGUU [ExTheophylB.H] , report its apparent KD of K4 kissing-loop reporter.
166

Bench note: what apparent KD of K4 kissing-loop reporter did AUUUUUUUAUCAGGAUAUUAGUGAUGUUUGUUUUUGUUAGUGAUGUUGAUAUUUGUUUUAUGUAUUUAAGAAGGGAUUGAGAUGU [sfsmullin] show?
19.9

Which apparent KD of K4 kissing-loop reporter reading was recorded for the sequence GUGCGGUGGAGGUUACCGCUAUUCUGAGAAGGAGCGCAGAUGACUGCAGGUAGGUCGCUUAGAGCUUGCAGUGAUGUUGCAAGUU [Berienza] ?
166

Quick one: apparent KD of K4 kissing-loop reporter of UGCUUUAUCAGAAGGAGCGCGUUAUUCAUAAUAAUAAUCAGUGAUGUUGAUAUAUGAUGAUUGCAGGUAGGUCGCUGAUAUAGCU [KL-XARG-B3] ?
253

Can you look up the measured apparent KD of K4 kissing-loop reporter of AGAACUGUCUGAGAUACCAGCUAAGGAGUGAUGUUCCGGCUCGACGAAACGUCGAGCCAUAGCCCUUGGCAGCUCAGACAGUUCA [#27 K4 Theophylline B Same State] for me?
873
